This collection of values is drawn from the supplement of paper PMC9732359.

Provide the reported protein stability index of each item.
# assay_info: protein stability index of a GFP-peptide fusion (yeast GPS) (PSI 1-4); higher = more stable; sorted into four equal gates, so the index is relative within each strain
# settings: san1∆
Answers are plain numbers.

Some solved entries appear below for comparison.
construct_sequence | quantity_kind | reading
PGVLPVGIDTHTATDIY [SNF2] | protein stability index | 2.77
FSEVYEYNRLKVQDAIE [LIN1] | protein stability index | 3.04
QELCYPDENHDNTSHDE [BRN1] | protein stability index | 2.98
LVSEKIINSTALMKEKD [RPC82] | protein stability index | 3.11
EVDSASDFISKLEYPHT [RPN3] | protein stability index | 2.93
LSTSVGWKYEDVVAKLE [RPL16A] | protein stability index | 3.5
LIGSIRFPTKFVTQFRH [RET1] | protein stability index | 1.29
SQTTQLAGMDVEDALDK [FAS2] | protein stability index | 3.31
SSNVQQPQQQLGDMENN [RTT102] | protein stability index | 3.11
GVLYQGNIQISEYNFLE [DIS3] | protein stability index | 2.6

Dear colleague, could you please provide protein stability index for the sequences listed below?
1. SKSESDSQIVTPGELVT [RRP4]
2. YSRISKLKQLLDESSEQ [YIL149C/MLP2]

[2.88, 1.73]

State recorded protein stability index for all listed sequences.
1. SNTYKEERSNNLLTPQP [MCD1]
2. KETQQYELEFDTPTSGK [BRR2]

3.01
3.05

Suppose we examine the sequence KIMPKDILQITKKPLMV [SIR4] ; what protein stability index value has been reported?
2.32
